- System: MCF-7
- Protocol summary: MTT cytotoxicity assay
- Type: cell-based
- Condition summary: Homo sapiens, MCF7, 48 h, mean ± SD
- Protocol: HepG2 and Hep3B (human hepatoma cells), Bcap37 and MCF-7 (human breast cancer cells), TE-1 (human esophageal cancer cells), A549 (human lung carcinoma cells), U251 and U87 (human glioma cells), were cultured in Dulbecco’s modified Eagle’s medium (DMEM) supplemented with 10% fetal bovine serum (FBS) and 1% penicillin/streptomycin (10000 U/mL penicillin, 10000 μg/ml streptomycin). […]
Listed next: entries and their corresponding IC50.
Hi! Could you send only the number? It should be in µM, unit omitted.

CC(C)=CCc1c(-c2ccc(O)cc2O)oc2c3c(cc(O)c2c1=O)OC(C)(C)C=C3 on MCF-7 gives IC50 = 13.5

Bench note, MCF-7: entry O=c1[nH]cc(F)c(=O)[nH]1 [Compound 5FU, 5-Fluorouracil, reference compound] , its IC50 = 42.3

IC50 on MCF-7 for COc1c(-c2ccc(O)c(CC=C(C)C)c2)oc2c(CC=C(C)C)c(O)cc(O)c2c1=O is 22.3

Query COc1c(-c2ccc(O)c(O)c2)oc2c(CC=C(C)C)c(O)c(CC=C(C)C)c(O)c2c1=O on MCF-7; IC50 returned: 19.2

###

- System: Bcap37
- Protocol summary: MTT cytotoxicity assay
- Format: cell-based
- Condition summary: Homo sapiens, 48 h, mean ± SD
Experimental endpoint: IC50 (µM)
Write the answer as a number in µM, unit excluded.

Before answering, review these 3 worked examples.
| Molecule | Experimental endpoint | Measurement unit | Endpoint value |
| --- | --- | --- | --- |
| O=c1[nH]cc(F)c(=O)[nH]1 [Compound 5FU, 5-Fluorouracil, reference compound] | IC50 | µM | 44.1 |
| COc1c(-c2ccc(O)c(O)c2)oc2c(CC=C(C)C)c(O)c(CC=C(C)C)c(O)c2c1=O | IC50 | µM | 42.4 |
| CC(C)=CCc1c(-c2ccc(O)cc2O)oc2c3c(cc(O)c2c1=O)OC(C)(C)C=C3 | IC50 | µM | 31 |

Query molecule follows.
Lookup result for COc1c(-c2ccc(O)c(CC=C(C)C)c2)oc2c(CC=C(C)C)c(O)cc(O)c2c1=O ; measured IC50: 28

###

Reported IC50 values follow for various molecules
- Test system: HepG2
- Protocol summary: MTT cytotoxicity assay
- Type: cell-based, human
- Condition summary: Homo sapiens, HepG2; MTT, 48 h, mean ± SD
- Experimental: HepG2 and Hep3B (human hepatoma cells), Bcap37 and MCF-7 (human breast cancer cells), TE-1 (human esophageal cancer cells), A549 (human lung carcinoma cells), U251 and U87 (human glioma cells), were cultured in Dulbecco’s modified Eagle’s medium (DMEM) supplemented with 10% fetal bovine serum (FBS) and 1% penicillin/streptomycin (10000 U/mL penicillin, 10000 μg/ml streptomycin). […]

| Molecule | IC50 |
| --- | --- |
| CC(C)=CCc1c(-c2ccc(O)cc2O)oc2c3c(cc(O)c2c1=O)OC(C)(C)C=C3 | 9.76 µM |
| CC(C)=CCc1cc([C@@H]2CC(=O)c3ccc(O)cc3O2)c2c(c1O)OC(C)(C)CC2 | > 100 µM |
| COc1c(-c2ccc(O)c(O)c2)oc2c(CC=C(C)C)c(O)c(CC=C(C)C)c(O)c2c1=O | 26.1 µM |
| O=c1[nH]cc(F)c(=O)[nH]1 [Compound 5FU, 5-Fluorouracil, reference compound] | 47.1 µM |
| COc1c(-c2cc(O)c3c(c2)C=CC(C)(C)O3)oc2c(CC=C(C)C)c(O)cc(O)c2c1=O | 36.7 µM |

Below: the item to evaluate.
Consider COc1c(-c2ccc(O)c(CC=C(C)C)c2)oc2c(CC=C(C)C)c(O)cc(O)c2c1=O . Its measured IC50 is 9.89 µM
